Provenance of the data: patent US7750020B2

- measurement-target: recombinant GST-GK (Homo sapiens, UniProt P35557)
- Sequence (P35557 whole entry): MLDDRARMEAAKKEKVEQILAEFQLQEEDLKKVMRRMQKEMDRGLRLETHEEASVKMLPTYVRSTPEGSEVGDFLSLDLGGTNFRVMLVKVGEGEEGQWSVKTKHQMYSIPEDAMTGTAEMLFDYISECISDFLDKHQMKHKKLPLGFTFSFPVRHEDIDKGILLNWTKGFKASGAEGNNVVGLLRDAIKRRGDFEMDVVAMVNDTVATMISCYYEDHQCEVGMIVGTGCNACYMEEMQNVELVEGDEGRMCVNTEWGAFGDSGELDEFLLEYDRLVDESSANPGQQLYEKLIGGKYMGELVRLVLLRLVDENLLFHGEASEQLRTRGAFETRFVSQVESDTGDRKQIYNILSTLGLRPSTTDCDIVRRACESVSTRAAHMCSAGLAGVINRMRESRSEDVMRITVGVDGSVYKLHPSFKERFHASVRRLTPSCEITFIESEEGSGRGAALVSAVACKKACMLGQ
- test-protocol: in vitro assay measuring the activation of recombinant GST-GK
pEC50: −log10 of the molar value.
value-kind: pEC50

COc1ccc2nc(NC(=O)C(CC3CCCC3)c3ccc(S(=O)(=O)N4CCN(C)CC4)cc3)sc2n1 (stereo not shown) [Example 1]: ~6.60

----------
value-kind: melting point

COc1ccc2nc(NC(=O)C(CC3CCCC3)c3ccc(S(=O)(=O)NCc4ccccc4)cc3)sc2n1 (stereo not drawn): 237 to 240 °C
COc1ccc2nc(NC(=O)C(CC3CCCC3)c3ccc(S(=O)(=O)Nc4cccnc4)cc3)sc2n1 (stereo not drawn): 125 to 127 °C
COc1ccc2nc(NC(=O)C(CC3CCCC3)c3ccc(S(=O)(=O)NCc4ccccc4F)cc3)sc2n1 (stereo not drawn): 238 to 240 °C
CCCN(c1ccccc1)S(=O)(=O)c1ccc(C(CC2CCCC2)C(=O)Nc2nc3ccc(OC)nc3s2)cc1 (stereo not drawn): 83 to 85 °C
COc1ccc2nc(NC(=O)C(CC3CCCC3)c3ccc(S(=O)(=O)NCc4ccco4)cc3)sc2n1 (stereo not drawn): 244 to 247 °C
CCCN(CCC)S(=O)(=O)c1ccc(C(CC2CCCC2)C(=O)Nc2nc3ccc(OC)nc3s2)cc1 (stereo not drawn): 64 to 66 °C
COc1ccc2nc(NC(=O)C(CC3CCCC3)c3ccc(S(=O)(=O)N4CCN(C(C)=O)CC4)cc3)sc2n1 (stereo not drawn): 215 to 217 °C
COc1ccc2nc(NC(=O)C(CC3CCCC3)c3ccc(S(=O)(=O)N4CCCCC4)cc3)sc2n1 (stereo not drawn): 184 to 218 °C
COc1ccc2nc(NC(=O)C(CC3CCCC3)c3ccc(S(=O)(=O)NC4CC4)cc3)sc2n1 (stereo not drawn): 235 to 237 °C
COCCNS(=O)(=O)c1ccc(C(CC2CCCC2)C(=O)Nc2nc3ccc(OC)nc3s2)cc1 (stereo not drawn): 209 to 211 °C
CCCCN(CCCC)S(=O)(=O)c1ccc(C(CC2CCCC2)C(=O)Nc2nc3ccc(OC)nc3s2)cc1 (stereo not drawn): 65 to 67 °C
COc1ccc2nc(NC(=O)C(CC3CCCC3)c3ccc(S(=O)(=O)NCc4cccs4)cc3)sc2n1 (stereo not drawn): 263 to 268 °C
COc1ccc2nc(NC(=O)C(CC3CCCC3)c3ccc(S(=O)(=O)Nc4ccccc4)cc3)sc2n1 (stereo not drawn): 223 to 226 °C
COc1ccc2nc(NC(=O)C(CC3CCCC3)c3ccc(S(=O)(=O)NCc4cccnc4)cc3)sc2n1 (stereo not drawn): 227 to 229 °C
COc1ccc2nc(NC(=O)C(CC3CCCC3)c3ccc(S(=O)(=O)N(C)C)cc3)sc2n1 (stereo not drawn): 229 to 234 °C
COc1ccc2nc(NC(=O)C(CC3CCCC3)c3ccc(S(=O)(=O)N(C(C)C)C(C)C)cc3)sc2n1 (stereo not drawn): 83 to 85 °C
COc1cccc(CNS(=O)(=O)c2ccc(C(CC3CCCC3)C(=O)Nc3nc4ccc(OC)nc4s3)cc2)c1 (stereo not drawn): 179 to 181 °C
COc1ccc2nc(NC(=O)C(CC3CCCC3)c3ccc(S(=O)(=O)N4CCOCC4)cc3)sc2n1 (stereo not drawn): 120 to 123 °C
CCN1CCN(S(=O)(=O)c2ccc(C(CC3CCCC3)C(=O)Nc3nc4ccc(OC)nc4s3)cc2)CC1 (stereo not drawn): 106 to 110 °C
CCN(CC)S(=O)(=O)c1ccc(C(CC2CCCC2)C(=O)Nc2nc3ccc(OC)nc3s2)cc1 (stereo not drawn): 150 to 152 °C
COc1ccc2nc(NC(=O)C(CC3CCCC3)c3ccc(S(=O)(=O)N(C)Cc4ccccc4)cc3)sc2n1 (stereo not drawn): 206 to 208 °C
